Measured values drawn from ChEMBL document CHEMBL4689842 for this set.

system: Fibroblast; assay: Incucyte cell viability with human fibroblast; assay type: toxicity, cell-based; conditions: 6 h, 10 µM, compound concentration 10 uM, replicate number 2, timepoint 6 hours; also: filed as whole numbers so only -1 and 0 and 1 occur
Growth Rate for assorted compounds
ASSAY ENDPOINT: Growth Rate

INSERT INTO results (compound, readout_value) VALUES
  ('CCc1cc2c(cc1CC)CC(NC[C@H](O)c1ccc(O)c3[nH]c(=O)ccc13)C2', 0),
  ('Nc1nc(NCCc2ccc(O)cc2)nc2nc(-c3ccco3)nn12', 0),
  ('O=C(NOC[C@H](O)CO)c1ccc(F)c(F)c1Nc1ccc(I)cc1F', 0),
  ('N#Cc1c(N)nc(SCC(N)=O)c(C#N)c1-c1ccc(OCC2CC2)cc1', 0),
  ('CCCOc1ccc([C@@H]2[C@@H](C(=O)O)[C@H](c3ccc4c(c3)OCO4)CN2CC(=O)Nc2c(CC)cccc2CC)cc1', 0),
  ('CNc1oc(-c2cccc3ccccc23)nc1C#N', 1),
  ('COc1cc2c(NC3CCN(C(C)C)CC3)nc(N3CCC(F)(F)CC3)nc2cc1OCCCN1CCCC1', 1),
  ('CCCCC[C@H](O)/C=C/[C@@H]1[C@@H](C/C=C\CCCC(=O)O)[C@@H](O)C[C@H]1O', 1),
  ('CCOc1cc(N2CCC(O)CC2)ccc1Nc1ncc2c(n1)N(C1CCCC1)CCC(=O)N2C', 1),
  ('CCCc1cc(C)[nH]c(=O)c1CNC(=O)c1cc(-c2ccnc(N3CCN(C)CC3)c2)cc2c1cnn2C(C)C', 0),
  ('CC(C)N1CCC(C)(C)c2cc(C#Cc3ccc(C(=O)O)cc3)ccc21', 0),
  ('CC1(C)CNc2cc(NC(=O)c3cccnc3NCc3ccncc3)ccc21.O=P(O)(O)O.O=P(O)(O)O [MOTESANIB DIPHOSPHATE]', 0),
  ('Cc1nc(C#Cc2ccnc(Cl)c2)c(C)n1-c1ccc(OC(F)(F)F)cc1', 0),
  ('CNc1cc2[nH]c(=O)n(-c3ccc(NC(=O)NS(=O)(=O)c4ccc(Cl)s4)cc3)c(=O)c2cc1F', 0),
  ('CC(C)Oc1ccc(-c2nn([C@@H](C)c3oc4ccc(F)cc4c(=O)c3-c3cccc(F)c3)c3ncnc(N)c23)cc1F', 0),
  ('N#CC1(c2ccccn2)CCN(Cc2cc(C(=O)N3CCCC3)c(=O)n3ccccc23)CC1', 1),
  ('Nc1nc2c(c(N3CCNCC3)n1)CCC1=C2[C@@H]2CCCC[C@@H]2O1', 0),
  ('COc1ccc(COc2ccc(Cc3cnc(N)nc3N)cc2OC)cc1 [GW632580X]', 0),
  ('C[C@@H]1CCc2ncc(F)cc2[C@H]2CCCN2c2ccn3ncc(c3n2)C(=O)N1', 0),
  ('NS(=O)(=O)c1cc(NC(=O)C2(c3ccccc3Cl)CC2)ccc1Oc1cccc(Cl)c1', 0),
  ('CC(C)CC(=O)N1CCc2nc(-c3ccc(Br)cc3)nc(N(C)Cc3ccccc3)c2C1', 0),
  ('COc1ccc(/C=C/CCCCOc2ccc(C(=O)c3cccc(C(=O)O)c3)cc2CCC(=O)O)cc1', 0),
  ('CCCCN(CCCC)C(=O)CN1C[C@@H](c2ccc3c(c2)OCO3)[C@H](C(=O)O)[C@H]1c1ccc(OC)cc1', 0),
  ('C[C@@H]1CN(c2cc(-c3nn(C)c4ccc(OC5(C)CC5)cc34)ncn2)C[C@H](C)O1', 1),
  ('CCCCc1nc(Cl)c(CO)n1Cc1ccc(-c2ccccc2-c2nn[nH]n2)cc1', 0);
